These data points were gathered from ChEMBL document CHEMBL4308907.

biological target: UniProtKB O43570; assay: Binding affinity to recombinant human CA12 by DSF-based fluorescence thermal shift assay
Sequence (O43570 whole entry): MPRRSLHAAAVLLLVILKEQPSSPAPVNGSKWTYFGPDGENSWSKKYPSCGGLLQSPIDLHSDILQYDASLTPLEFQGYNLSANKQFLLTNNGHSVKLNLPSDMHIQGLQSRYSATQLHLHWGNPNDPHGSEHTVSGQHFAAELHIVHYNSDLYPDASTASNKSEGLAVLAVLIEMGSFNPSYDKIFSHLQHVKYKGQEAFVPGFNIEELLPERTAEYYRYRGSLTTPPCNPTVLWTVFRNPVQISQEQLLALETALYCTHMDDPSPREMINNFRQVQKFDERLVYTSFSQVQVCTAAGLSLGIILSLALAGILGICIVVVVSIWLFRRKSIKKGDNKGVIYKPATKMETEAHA
pKd: −log10 of the molar value.
We begin with a simple list: items and their reported pKd.

{"molecule": "Cc1c(Br)c(N2CC(C(=O)NN)CC2=O)c(Br)c(C)c1S(N)(=O)=O (stereo not given)", "sign qualifier": "≤", "pKd": 3.70}
{"molecule": "NS(=O)(=O)c1ccc(NC(=O)C2CC(=O)N(c3ccccc3Br)C2)cc1 (stereo not given)", "sign qualifier": "=", "pKd": 5.46}
{"molecule": "Cc1cc(N2CC(C(=O)N/N=C/c3ccccc3)CC2=O)cc(C)c1S(N)(=O)=O (stereo not given)", "sign qualifier": "=", "pKd": 4.54}
{"molecule": "COC(=O)C1CC(=O)N(c2cc(C)c(S(N)(=O)=O)cc2C)C1 (stereo not given)", "sign qualifier": "=", "pKd": 4.92}
{"molecule": "Cc1c(Br)c(N2CC(C(=O)N/N=C/c3ccc([N+](=O)[O-])cc3)CC2=O)c(Br)c(C)c1S(N)(=O)=O (stereo not given)", "sign qualifier": "≤", "pKd": 3.70}
{"molecule": "Cc1cc(N2CC(C(=O)O)CC2=O)cc(C)c1S(N)(=O)=O (stereo not given)", "sign qualifier": "=", "pKd": 5.11}
{"molecule": "COc1ccc(/C=N/NC(=O)C2CC(=O)N(c3cc(C)c(S(N)(=O)=O)c(C)c3)C2)cc1 (stereo not given)", "sign qualifier": "=", "pKd": 4.74}
{"molecule": "NS(=O)(=O)c1ccc(NC(=O)C2CC(=O)N(c3cccc(Br)c3)C2)cc1 (stereo not given)", "sign qualifier": "=", "pKd": 5.00}
{"molecule": "Cc1c(Br)c(N2CC(C(=O)N/N=C/c3ccccc3)CC2=O)c(Br)c(C)c1S(N)(=O)=O (stereo not given)", "sign qualifier": "≤", "pKd": 3.70}
{"molecule": "Cc1c(Br)c(N2CC(C(=O)O)CC2=O)c(Br)c(C)c1S(N)(=O)=O (stereo not given)", "sign qualifier": "≤", "pKd": 3.70}
{"molecule": "Cc1cc(N2CC(C(=O)O)CC2=O)cc(C)c1S(=O)(=O)Cl (stereo not given)", "sign qualifier": "≤", "pKd": 3.70}
{"molecule": "Cc1cc(C)n(NC(=O)C2CC(=O)N(c3cc(C)c(S(N)(=O)=O)c(C)c3)C2)n1 (stereo not given)", "sign qualifier": "=", "pKd": 4.17}
{"molecule": "Cc1cc(C)n(C(=O)C2CC(=O)N(c3cc(C)c(S(N)(=O)=O)c(C)c3Cl)C2)n1 (stereo not given)", "sign qualifier": "=", "pKd": 6.00}
{"molecule": "NS(=O)(=O)c1ccc(NC(=O)C2CC(=O)N(c3ccc(Br)cc3)C2)cc1 (stereo not given)", "sign qualifier": "=", "pKd": 4.41}
{"molecule": "Cc1cc(N2CC(C(=O)NN3CC(C(=O)O)CC3=O)CC2=O)cc(C)c1S(N)(=O)=O (stereo not given)", "sign qualifier": "=", "pKd": 4.66}
{"molecule": "NS(=O)(=O)c1ccc(N2CC(C(=O)O)CC2=O)cc1 (stereo not given)", "sign qualifier": "=", "pKd": 5.70}
{"molecule": "Cc1cc(N2CC(C(=O)N/N=C/c3ccc([N+](=O)[O-])cc3)CC2=O)c(Cl)c(C)c1S(N)(=O)=O (stereo not given)", "sign qualifier": "=", "pKd": 5.85}
{"molecule": "Cc1cc(N2CC(C(=O)N/N=C/c3ccc([N+](=O)[O-])cc3)CC2=O)cc(C)c1S(N)(=O)=O (stereo not given)", "sign qualifier": "=", "pKd": 4.66}
{"molecule": "NNC(=O)C1CC(=O)N(c2ccc(S(N)(=O)=O)cc2)C1 (stereo not given)", "sign qualifier": "=", "pKd": 5.40}
{"molecule": "Cc1cc(S(N)(=O)=O)c(C)cc1N1CC(C(=O)N/N=C/c2ccccc2)CC1=O (stereo not given)", "sign qualifier": "=", "pKd": 5.03}

---

biological target: Carbonic anhydrase 2 (Homo sapiens); experiment: Binding affinity to recombinant human CA2 by DSF-based fluorescence thermal shift assay
pKd: −log10 of the molar value.
Binary classification by pKd, with 7 as an inclusive lower bound for 1.0; all other cases are 0.0.

{"compound": "Cc1c(Br)c(N2CC(C(=O)NN)CC2=O)c(Br)c(C)c1S(N)(=O)=O (centres undefined)", "class": 0.0}
{"compound": "COC(=O)C1CC(=O)N(c2cc(C)c(S(N)(=O)=O)cc2C)C1 (centres undefined)", "class": 0.0}
{"compound": "Cc1cc(N2CC(C(=O)N/N=C/c3ccccc3)CC2=O)c(Cl)c(C)c1S(N)(=O)=O (centres undefined)", "class": 1.0}
{"compound": "Cc1cc(NCC(CC(=O)O)c2n[nH]c(=S)n2-c2ccccc2)cc(C)c1S(N)(=O)=O (centres undefined)", "class": 0.0}
{"compound": "Cc1cc(N2CC(C(=O)N/N=C/c3ccc(Br)cc3)CC2=O)c(Cl)c(C)c1S(N)(=O)=O (centres undefined)", "class": 1.0}
{"compound": "Cc1c(Br)c(N2CC(C(=O)N/N=C/c3ccccc3)CC2=O)c(Br)c(C)c1S(N)(=O)=O (centres undefined)", "class": 0.0}
{"compound": "COc1ccc(/C=N/NC(=O)C2CC(=O)N(c3cc(C)c(S(N)(=O)=O)c(C)c3)C2)cc1 (centres undefined)", "class": 0.0}
{"compound": "Cc1c(Br)c(N2CC(C(=O)N/N=C/c3ccc([N+](=O)[O-])cc3)CC2=O)c(Br)c(C)c1S(N)(=O)=O (centres undefined)", "class": 0.0}
{"compound": "COC(=O)C1CC(=O)N(c2c(Br)c(C)c(S(N)(=O)=O)c(C)c2Br)C1 (centres undefined)", "class": 0.0}
{"compound": "Cc1cc(C)n(C(=O)C2CC(=O)N(c3cc(C)c(S(N)(=O)=O)c(C)c3)C2)n1 (centres undefined)", "class": 0.0}
{"compound": "COc1ccc(/C=N/NC(=O)C2CC(=O)N(c3cc(C)c(S(N)(=O)=O)c(C)c3Cl)C2)cc1 (centres undefined)", "class": 1.0}
{"compound": "Cc1cc(N2CC(c3n[nH]c(=S)o3)CC2=O)cc(C)c1S(N)(=O)=O (centres undefined)", "class": 0.0}
{"compound": "Cc1cc(N2CC(C(=O)O)CC2=O)cc(C)c1S(N)(=O)=O (centres undefined)", "class": 0.0}
{"compound": "Cc1cc(N2CC(C(=O)N/N=C/c3ccc(Cl)cc3)CC2=O)cc(C)c1S(N)(=O)=O (centres undefined)", "class": 0.0}
{"compound": "NS(=O)(=O)c1ccc(N2CC(C(=O)O)CC2=O)cc1 (centres undefined)", "class": 0.0}
{"compound": "Cc1cc(N2CC(C(=O)N/N=C/c3ccc([N+](=O)[O-])cc3)CC2=O)c(Cl)c(C)c1S(N)(=O)=O (centres undefined)", "class": 1.0}

---

target: Carbonic anhydrase 9 (Homo sapiens); test: Binding affinity to recombinant human CA9 by DSF-based fluorescence thermal shift assay
pKd: −log10 of the molar value.
Kind request: treat 6 as inclusive, so pKd at 6 or higher is t, anything lower is f.

{"compound": "NS(=O)(=O)c1ccc(NC(=O)C2CC(=O)N(c3ccccc3)C2)cc1 (stereo not given)", "class": "t"}
{"compound": "Cc1cc(N2CC(C(=O)NN)CC2=O)cc(C)c1S(N)(=O)=O (stereo not given)", "class": "f"}
{"compound": "NS(=O)(=O)c1ccc(NC(=O)C2CC(=O)N(c3ccccc3Br)C2)cc1 (stereo not given)", "class": "t"}
{"compound": "Cc1cc(N2CC(C(=O)O)CC2=O)c(Cl)c(C)c1S(N)(=O)=O (stereo not given)", "class": "t"}
{"compound": "NS(=O)(=O)c1ccc(NC(=O)C2CC(=O)N(c3ccc(Br)cc3)C2)cc1 (stereo not given)", "class": "t"}
{"compound": "Cc1cc(C)cc(NC(=O)C2CC(=O)N(c3ccccc3)C2)c1 (stereo not given)", "class": "f"}
{"compound": "Cc1cc(N2CC(C(=O)N/N=C/c3ccc([N+](=O)[O-])cc3)CC2=O)cc(C)c1S(N)(=O)=O (stereo not given)", "class": "f"}
{"compound": "Cc1cc(C)cc(N2CC(C(=O)O)CC2=O)c1 (stereo not given)", "class": "f"}
{"compound": "Cc1cc(N2CC(C(=O)N/N=C/c3ccc([N+](=O)[O-])cc3)CC2=O)c(Cl)c(C)c1S(N)(=O)=O (stereo not given)", "class": "t"}
{"compound": "Cc1cc(N2CC(C(=O)N/N=C/c3ccc(Br)cc3)CC2=O)cc(C)c1S(N)(=O)=O (stereo not given)", "class": "f"}
